The entries below come with measured DLD-1, MTS, 72 hours (% Inhibition) values attached.
# Tested on: DLD-1 cancer cells
# protocolSummary: MTS assay, DLD-1 cells
# Type: cell-based
# Parameters: concentration or dose not given beside the values
Please state the figure in %; there is no need to write the unit.

CCN(c1cc(O)ccc1C)c1nccn2c(NC(=O)OC(C)C)nnc12 [Compound 64] ... 26
COc1cccc(Nc2nccn3c(NC(=O)OC(C)C)nnc23)c1 [Compound 5] ... 96

Given CCN(c1ccccc1C)c1nccn2c(NC(=O)OC(C)C)nnc12 [Compound 63] , state its recorded DLD-1, MTS, 72 hours (% Inhibition).
98

Can you handle Nc1nnc2c(Nc3cc(Cl)ccc3Cl)nccn12 [Compound 160] next?
53

Can you handle CC(C)OC(=O)Nc1nnc2c(NCc3ccc(C(C)(C)C)cc3)nccn12 [Compound 22] next?
98

Can you handle Cc1ccc(CCNc2nccn3c(N)nnc23)cc1 [Compound 90] next?
89

Can you handle Nc1nnc2c(NCCc3ccc(Oc4ccccc4)cc3)nccn12 [Compound 93] next?
98

====

The entries below come with measured inhibition at 30 µM values attached.
# subjectOfTest: FGFR2 (N549H) (Homo sapiens, UniProt P21802, N549H)
# Construct: purchased Millipore 14-742
# Sequence (P21802 22-821 N549H): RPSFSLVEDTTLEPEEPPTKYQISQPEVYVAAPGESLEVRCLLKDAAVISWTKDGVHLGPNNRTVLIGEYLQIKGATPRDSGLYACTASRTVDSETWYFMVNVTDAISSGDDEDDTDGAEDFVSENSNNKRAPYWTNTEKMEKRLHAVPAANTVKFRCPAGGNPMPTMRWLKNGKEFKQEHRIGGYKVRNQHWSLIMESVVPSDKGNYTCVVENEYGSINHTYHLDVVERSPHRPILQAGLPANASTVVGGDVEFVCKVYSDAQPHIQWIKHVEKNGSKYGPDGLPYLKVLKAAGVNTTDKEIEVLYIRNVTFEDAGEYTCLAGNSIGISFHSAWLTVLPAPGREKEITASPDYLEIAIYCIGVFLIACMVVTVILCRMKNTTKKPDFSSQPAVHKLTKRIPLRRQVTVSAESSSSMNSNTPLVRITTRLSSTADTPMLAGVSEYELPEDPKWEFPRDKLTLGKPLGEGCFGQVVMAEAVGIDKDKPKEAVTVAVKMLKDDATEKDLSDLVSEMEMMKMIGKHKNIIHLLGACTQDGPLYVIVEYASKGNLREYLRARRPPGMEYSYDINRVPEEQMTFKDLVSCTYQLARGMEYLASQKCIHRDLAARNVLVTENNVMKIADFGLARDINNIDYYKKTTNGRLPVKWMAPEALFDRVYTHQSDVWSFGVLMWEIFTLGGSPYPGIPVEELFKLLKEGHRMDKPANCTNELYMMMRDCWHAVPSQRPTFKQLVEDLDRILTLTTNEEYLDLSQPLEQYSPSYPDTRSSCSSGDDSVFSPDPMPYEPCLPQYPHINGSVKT
# protocolSummary: FGFR2 kinase activity assay (fluorescent ELISA)
# Type: biochemical
# runConditions: 30 μM compound
Please state the figure in %; there is no need to write the unit.

Given Nc1nnc2c(Nc3cccc(F)c3)nccn12 [Compound 99] , state its recorded inhibition at 30 µM.
60.7

Can you handle CC(C)OC(=O)Nc1nnc2c(Nc3ccc4c(c3)CCC4)nccn12 [Compound 34] next?
68.7

Can you handle Nc1nnc2c(Nc3cccc(Br)c3)nccn12 [Compound 142] next?
59.9

Can you handle CC(C)OC(=O)Nc1nnc2c(NCc3cc(C(F)(F)F)cc(C(F)(F)F)c3)nccn12 [Compound 66] next?
58.4

Can you handle Nc1nnc2c(NCCc3ccc(Cl)cc3)nccn12 [Compound 115] next?
71.6
